Attribution: patent US9409952B2

Assay: PAMPA (parallel artificial membrane permeability assay)
Format: in vitro ADME
Conditions: PAMPA; membrane permeation rate (Pe); 50 mM MOPSO buffer pH 6.5 with 5.0% glycocholic acid, 37° C., 18 hours; read-out: iPAMPA Pe
Method: 4 μL of a phospholipid-organic solvent solution composed of 10% (w/v) of egg lecithin, 0.5% (w/v) of cholesterol and dodecane (all purchased from Fluka) was added to a Millipore 96-well membrane filter (hydrophobic PVDF (polyvinylidene difluoride), pore size 0.45 microm) (purchased from Millipore Japan) to make an artificial phospholipid membrane. […]
Starred links: 1 amine or outer side, 2 acyl side, 3 side chain; linkers in the order of their positions; H or OH if unused. Positions of bridges follow the written chain, without caps; N, C: chain ends. Non-standard residues stand in square brackets, D forms with d. Residues, ends and D or L forms follow the SMILES beside them. *: point of attachment. NMeF = CN[C@@H](Cc1ccccc1)C(=O)O; NMeGABA = CN(CCCC(=O)[*:2])[*:1]; NMeL = CN[C@@H](CC(C)C)C(=O)O; NMeA = CN[C@@H](C)C(=O)O; Piperidide = C1CCN(*)CC1
# maps each entry to its Papp at 18 hours, 50 µM
Quantity measured: Papp at 18 hours, 50 µM (×10⁻⁶ cm/s)

INSERT INTO measurements (molecule, output_unit, assay_value) VALUES
  ('CC(C)[C@@H]1NC(=O)[C@H](C)N(C)C(=O)[C@H](Cc2ccccc2)N(C)C(=O)[C@H](C)N(C)C(=O)[C@H]([C@@H](C)O)NC(=O)[C@H](C)N(C)C(=O)[C@H](C)N(C)C(=O)C[C@@H](C(=O)N(C)[C@@H](Cc2ccccc2)C(=O)N(C)[C@@H](Cc2ccccc2)C(=O)N[C@@H](C)C(=O)N2CCCCC2)NC(=O)[C@H](C)N(C)C(=O)[C@H](C)N(C)C1=O [DP-460] ([NMeA][NMeA]T[NMeA][NMeF][NMeA]V[NMeA][NMeA]D[NMeF][NMeF]A-Piperidide; lactam N-10)', '×10⁻⁶ cm/s', 5.1),
  ('CC[C@H](C)[C@@H]1NC(=O)[C@H](C)N(C)C(=O)[C@H](CC(C)C)N(C)C(=O)CCCN(C)C(=O)C[C@@H](C(=O)N2CCCCC2)NC(=O)[C@H](C)N(C)C(=O)[C@H](Cc2ccccc2)N(C)C(=O)[C@H]([C@@H](C)O)NC(=O)[C@H](Cc2ccccc2)N(C)C(=O)[C@H](CC(C)C)N(C)C1=O [DP-487] ([NMeGABA][NMeL][NMeA]I[NMeL][NMeF]T[NMeF][NMeA]D-Piperidide; lactam N-10)', '×10⁻⁶ cm/s', 24);

====

Experiment: PAMPA (parallel artificial membrane permeability assay)
Format: in vitro ADME
Details: PAMPA; membrane permeation rate (Pe); 50 mM MOPSO buffer pH 6.5 with 5.0% glycocholic acid, 37° C., 18 hours; read-out: iPAMPA Pe
Positions of bridges follow the written chain, without caps; N, C: chain ends. Non-standard residues stand in square brackets, D forms with d. Residues, ends and D or L forms follow the SMILES beside them. *: point of attachment. NMeF = CN[C@@H](Cc1ccccc1)C(=O)O; hPhe = N[C@@H](CCc1ccccc1)C(=O)O; Aoc(2) = CCCCCC[C@H](N)C(=O)O; NMeL = CN[C@@H](CC(C)C)C(=O)O; NMeV = CN[C@H](C(=O)O)C(C)C; NMeS = CN[C@@H](CO)C(=O)O; NMeA = CN[C@@H](C)C(=O)O; Piperidide = C1CCN(*)CC1; β3hA = C[C@H](N)CC(=O)O; Abu = CC[C@H](N)C(=O)O; Sar = CNCC(=O)O; tBu = CC(C)(C)*
Binarize Papp at 18 hours, 50 µM at 30 ×10⁻⁶ cm/s; below is yes, at or above is no.

INSERT INTO results (molecule, class_label) VALUES
  ('CC(C)C[C@@H]1NC(=O)[C@H](C(C)C)N(C)C(=O)[C@H](CCc2ccccc2)NC(=O)CN(C)C(=O)[C@H]([C@@H](C)O)NC(=O)[C@H](C)N(C)C(=O)[C@H](CC(C)C)N(C)C(=O)[C@@H](C(C)C)NC(=O)C[C@@H](C(=O)N2CCCCC2)NC(=O)[C@H](C)NC(=O)[C@H](CC(C)C)N(C)C1=O [DP-736] ([dV][NMeL][NMeA]T[Sar][hPhe][NMeV]L[NMeL]AD-Piperidide; lactam N-11)', 'yes'),
  ('CC(C)C[C@@H]1NC(=O)[C@H](CC(C)C)N(C)C(=O)[C@H](COC(C)(C)C)NC(=O)[C@H](Cc2ccccc2)N(C)C(=O)[C@H](C)N(C)C(=O)C[C@@H](C(=O)N2CCCCC2)NC(=O)[C@H](CC(C)C)N(C)C(=O)[C@H]([C@@H](C)O)NC1=O [DP-698] ([NMeA][NMeF]S(tBu)[NMeL]LT[NMeL]D-Piperidide; lactam N-8)', 'no'),
  ('CC(C)C[C@H]1C(=O)N[C@@H](COC(C)(C)C)C(=O)N(C)CC(=O)N[C@@H]([C@@H](C)O)C(=O)N[C@H](C(=O)N2CCCCC2)CC(=O)N[C@@H](C(C)C)C(=O)N(C)[C@@H](Cc2ccccc2)C(=O)N1C [DP-724] (V[NMeF][NMeL]S(tBu)[Sar]TD-Piperidide; lactam N-7)', 'yes'),
  ('CC(C)C[C@@H]1NC(=O)[C@H](CC(C)C)N(C)C(=O)[C@H](C)N(C)C(=O)C[C@@H](C(=O)N2CCCCC2)NC(=O)[C@H](CC(C)C)N(C)C(=O)[C@H](Cc2ccccc2)N(C)C(=O)[C@H](Cc2ccccc2)N(C)C(=O)[C@H]([C@@H](C)O)NC(=O)[C@H](Cc2ccccc2)N(C)C1=O [DP-442] ([NMeA][NMeL]L[NMeF]T[NMeF][NMeF][NMeL]D-Piperidide; lactam N-9)', 'no'),
  ('CCCCCC[C@@H]1NC(=O)[C@H](CC(C)C)N(C)C(=O)C[C@H](C)NC(=O)[C@H](CC)NC(=O)[C@H](CO)N(C)C(=O)[C@H](CC(C)C)N(C)C(=O)[C@H](CC(C)C)N(C)C(=O)[C@H](CC(C)C)N(C)C(=O)[C@@H](C)NC(=O)[C@H](C)NC(=O)[C@H](CC(C)C)N(C)C1=O [DP-646] (cyclo(A[dA][NMeL][NMeL][NMeL][NMeS][Abu][β3hA][NMeL][Aoc(2)][NMeL]))', 'yes'),
  ('CC(C)C[C@H](NC(=O)[C@@H](NC(=O)[C@@H]1CCCN1C(=O)[C@@H]1CC(=O)N[C@H](C)C(=O)N(C)[C@@H](C)C(=O)N(C)[C@@H](Cc2ccccc2)C(=O)N(C)[C@@H](CC(C)C)C(=O)N[C@@H]([C@@H](C)O)C(=O)N(C)CC(=O)N(C)[C@@H](CC(C)C)C(=O)N[C@@H](COC(C)(C)C)C(=O)N(C)[C@@H](CC(C)C)C(=O)N1)C(C)C)C(=O)N1CCCCC1 [DP-579] ([dA][NMeA][NMeF][NMeL]T[Sar][NMeL]S(tBu)[NMeL]DPVL-Piperidide; lactam N-10)', 'yes');

====

Assay: Mouse PK test of peptides (intravenous and oral administration)
Details: male, C57BL/6J, in vivo, iv, 20 mg/kg
Positions of bridges follow the written chain, without caps; N, C: chain ends. Non-standard residues stand in square brackets, D forms with d. Residues, ends and D or L forms follow the SMILES beside them. *: point of attachment. NMeF = CN[C@@H](Cc1ccccc1)C(=O)O; NMeI = CC[C@H](C)[C@H](NC)C(=O)O; NMeL = CN[C@@H](CC(C)C)C(=O)O; NMeA = CN[C@@H](C)C(=O)O; Piperidide = C1CCN(*)CC1; NPrGly = CCCNCC(=O)O; Sar = CNCC(=O)O; tBu = CC(C)(C)*
This listing pairs compounds with measured clearance.
Quantity measured: clearance (mL/min/kg)

INSERT INTO measurements (compound, assay_value) VALUES
  ('CC[C@H](C)[C@H]1C(=O)N[C@H](C(=O)N2CCCCC2)CC(=O)N[C@H](C(C)C)C(=O)N(C)[C@@H](Cc2ccccc2)C(=O)N(C)[C@@H](CC(C)C)C(=O)N[C@@H]([C@@H](C)O)C(=O)N(C)CC(=O)N(C)[C@@H](CC(C)C)C(=O)N[C@@H](COC(C)(C)C)C(=O)N1C [DP-265] ([dV][NMeF][NMeL]T[Sar][NMeL]S(tBu)[NMeI]D-Piperidide; lactam N-9)', 9.48),
  ('CC(C)C[C@@H]1NC(=O)[C@H](Cc2ccccc2)N(C)C(=O)[C@H](Cc2ccccc2)N(C)C(=O)[C@H](CC(C)C)NC(=O)[C@H](C)N(C)C(=O)[C@H]([C@@H](C)O)NC(=O)[C@H](C)N(C)C(=O)C[C@@H](C(=O)N2CCCCC2)NC(=O)[C@H](CC(C)C)N(C)C1=O [DP-125] ([NMeA]T[NMeA]L[NMeF][NMeF]L[NMeL]D-Piperidide; lactam N-9)', 9.49),
  ('CCCN1CC(=O)N(C)[C@@H](CC(C)C)C(=O)N[C@@H](COC(C)(C)C)C(=O)N(C)[C@@H](CC(C)C)C(=O)N[C@H](C(=O)N2CCCCC2)CC(=O)N[C@H](C)C(=O)N(C)[C@@H](C)C(=O)N(C)[C@@H](Cc2ccccc2)C(=O)N(C)[C@@H](CC(C)C)C(=O)N[C@@H]([C@@H](C)O)C1=O [DP-547] ([dA][NMeA][NMeF][NMeL]T[NPrGly][NMeL]S(tBu)[NMeL]D-Piperidide; lactam N-10)', 8.98),
  ('CCCN1CC(=O)N(C)[C@@H](CC(C)C)C(=O)N[C@@H]([C@@H](C)O)C(=O)N(C)[C@@H](C)C(=O)N(C)[C@@H](CC(C)C)C(=O)N(C)[C@@H]([C@@H](C)CC)C(=O)N[C@@H](COC(C)(C)C)C(=O)N[C@H](C(=O)N2CCCCC2)CC(=O)N(C)[C@@H](C)C(=O)N(C)[C@@H](Cc2ccccc2)C1=O [DP-540] ([NMeA][NMeF][NPrGly][NMeL]T[NMeA][NMeL][NMeI]S(tBu)D-Piperidide; lactam N-10)', 8.16);
